- Test system: HDAC activity (Mouse Liver Extract)
- assay_explanation: Histone Deacetylase (HDAC) Inhibition Assay using Boc-Lys (Ac)-AMC Substrate
- Type: biochemical
- assay_conditions: inhibitor at 10 μM; mouse liver enzyme; in % (unit assumed)
assay_readout: HDAC Inhibition 10 μM
Please reply with the number alone, leaving off any unit.

Reference set, count: 3
[
  {
    "smi": "O=C(CCCCCNC(=O)/C(=C\\c1ccc(F)c(C(F)(F)F)c1)c1ccc([N+](=O)[O-])cc1)NO",
    "observed_measurement": 99.5
  },
  {
    "smi": "O=C(CCCCCNC(=O)/C(=C\\c1ccncc1)c1ccc(F)cc1)NO",
    "observed_measurement": 35.4
  },
  {
    "smi": "Cc1ncsc1/C=C(/C(=O)NCCCCCC(=O)NO)c1cccs1",
    "observed_measurement": 99.67
  }
]

Any idea what HDAC Inhibition 10 μM was measured for `COc1ccc(/C(=C/c2c(F)ccc(F)c2F)C(=O)NCCCCCC(=O)NO)cc1` ?
96.16

---

- Tested on: HDAC activity (Mouse Liver Extract)
- assay_explanation: Histone Deacetylase (HDAC) Inhibition Assay using Boc-Lys (Ac)-AMC Substrate
- Format: biochemical
- assay_conditions: inhibitor at 10 μM; mouse liver enzyme; in % (unit assumed)
assay_readout: HDAC Inhibition 10 μM
Please reply with the number alone, leaving off any unit.

[
  {
    "smi": "COc1cc(/C=C(\\C(=O)NCCCCCC(=O)N(C)OC)c2ccc(O)cc2)cc(OC)c1OC",
    "assay_readout": "HDAC Inhibition 10 μM",
    "observed_measurement": 3.8
  },
  {
    "smi": "COc1cc(/C=C(\\C(=O)NCCCCCC(=O)Nc2cccc(O)c2)c2ccc(F)cc2)cc(OC)c1",
    "assay_readout": "HDAC Inhibition 10 μM",
    "observed_measurement": "−6.45"
  },
  {
    "smi": "COc1cc(/C=C(\\C(=O)NCCCCCC(=O)Nc2ccccc2N)c2ccc(O)cc2)cc(OC)c1",
    "assay_readout": "HDAC Inhibition 10 μM",
    "observed_measurement": 24
  }
]

With those in mind, consider the next compound.
Any idea what HDAC Inhibition 10 μM was measured for `CON(C)C(=O)CCCCCNC(=O)/C(=C\c1ccc(SC)cc1)c1ccc(F)cc1` ?
0.89

---

Attribute: melting point

Reference set, count: 5
[
  {
    "compound": "O=C(CCCCCNC(=O)/C(=C\\c1ccc(F)c(F)c1)c1ccc(F)cc1)NO",
    "observed_measurement": "135.8 to 139.4 °C"
  },
  {
    "compound": "COc1cc(/C=C(\\C(=O)NCCCCCC(=O)NO)c2ccc(F)cc2)cc(OC)c1OC",
    "observed_measurement": "153 to 157 °C"
  },
  {
    "compound": "CSc1ccc(/C=C(\\C(=O)NCCCCCC(=O)NC(Cc2ccc(O)cc2)C(=O)NO)c2ccc(F)cc2)cc1 (centres unmarked)",
    "observed_measurement": "142.1 to 145.4 °C"
  },
  {
    "compound": "COc1cc(/C=C(\\C(=O)NCCCCCC(=O)NO)c2ccc(O)cc2)cc(OC)c1",
    "observed_measurement": "144.1 to 144.6 °C"
  },
  {
    "compound": "O=C(CCCCCNC(=O)/C(=C\\c1ccc(F)c(Cl)c1)c1ccc(F)cc1)NO",
    "observed_measurement": "163.8 to 164.3 °C"
  }
]

Any idea what melting point was measured for `O=C(CCCCCNC(=O)/C(=C\c1ccc(Cl)s1)c1ccc(F)cc1)NO` ?
181 to 185.2 °C

Any idea what melting point was measured for `COc1cc(/C=C(\C(=O)NCCCCCC(=O)NOCc2ccccc2)c2ccc(F)cc2)cc(OC)c1` ?
79.9 to 86.7 °C

Any idea what melting point was measured for `O=C(CCCCCNC(=O)/C(=C\c1ccc(F)c(C(F)(F)F)c1)c1ccc(C(F)(F)F)cc1)NO` ?
95.1 to 103.6 °C
